The measurements presented in this section are drawn from ChEMBL document CHEMBL2176912.

# run description: Drug uptake in Sprague-Dawley rat brain at 10 mg/kg, po after 240 mins
# Type: ADME, organism-based
# Parameters: dose 10 mg/kg, route oral
# protocol conditions: read-out: Drug uptake
quantity measured: concentration at 4 h (ng/mL)
All answers are understood in ng/mL, so give the number only.

// concentration at 4 h value for "CS(=O)(=O)NC1(c2ccccc2)CCN(c2ncnc3c2nc(-c2ccccc2Cl)n3-c2ccc(Cl)cc2)CC1" : 184

* * *

Cannabinoid receptor 2 (Homo sapiens): recorded Ki for assorted compounds
Sequence (P34972 whole entry): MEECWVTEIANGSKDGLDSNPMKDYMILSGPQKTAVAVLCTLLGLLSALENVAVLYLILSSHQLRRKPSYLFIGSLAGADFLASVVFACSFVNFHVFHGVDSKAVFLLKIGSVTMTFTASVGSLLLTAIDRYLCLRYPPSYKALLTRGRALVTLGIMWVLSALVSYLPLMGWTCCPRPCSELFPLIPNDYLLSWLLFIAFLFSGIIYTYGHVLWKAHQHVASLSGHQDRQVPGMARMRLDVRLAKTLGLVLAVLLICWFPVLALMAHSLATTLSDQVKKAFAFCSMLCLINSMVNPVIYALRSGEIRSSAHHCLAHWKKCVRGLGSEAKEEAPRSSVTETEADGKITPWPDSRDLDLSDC
All answers are understood in µM, so give the number only.

Example results:
chemical smiles: CC(C)NC(=O)NC1CCN(c2ncnc3c2nc(-c2ccccc2Cl)n3-c2ccc(Cl)cc2)CC1
unit annotation: µM
Ki: 2.45

chemical smiles: NC(=O)C1(c2ccccc2)CCN(c2ncnc3c2nc(-c2ccccc2Cl)n3-c2ccc(Cl)cc2)CC1
unit annotation: µM
Ki: 5.51

Form field Ki for item "CC(C)(C)NC(=O)NC1(c2ccccc2)CCN(c2ncnc3c2nc(-c2ccccc2Cl)n3-c2ccc(Cl)cc2)CC1" on Cannabinoid receptor 2 (Homo sapiens): 20

Form field Ki for item "CC(C)(C)OC(=O)N1CCC(Nc2ncnc3c2nc(-c2ccccc2Cl)n3-c2ccc(Cl)cc2)CC1" on Cannabinoid receptor 2 (Homo sapiens): 14

Form field Ki for item "CS(=O)(=O)NC1CCN(c2ncnc3c2nc(-c2ccccc2Cl)n3-c2ccc(Cl)cc2)CC1" on Cannabinoid receptor 2 (Homo sapiens): 1.07

Form field Ki for item "CCNC(=O)NC1(c2ccccc2)CCN(c2ncnc3c2nc(-c2ccccc2Cl)n3-c2ccc(Cl)cc2)CC1" on Cannabinoid receptor 2 (Homo sapiens): 4.65

Form field Ki for item "CCCCNC(=O)NC1CCN(c2ncnc3c2nc(-c2ccccc2Cl)n3-c2ccc(Cl)cc2)CC1" on Cannabinoid receptor 2 (Homo sapiens): 1.55

* * *

# run description: Drug uptake in Sprague-Dawley rat brain at 10 mg/kg, po after 60 mins
# Assay type: ADME, organism-based
# Set-up: dose 10 mg/kg, route oral
# protocol conditions: read-out: Drug uptake
quantity measured: concentration at 1 h
Write the numeric value and follow it with the unit.

// concentration at 1 h value for "CS(=O)(=O)NC1(c2ccccc2)CCN(c2ncnc3c2nc(-c2ccccc2Cl)n3-c2ccc(Cl)cc2)CC1" : 58 ng/mL

* * *

The following compounds are listed with their measured Ke values.
# assay system: Cannabinoid receptor 1 (Homo sapiens)
# Sequence (P21554 whole entry): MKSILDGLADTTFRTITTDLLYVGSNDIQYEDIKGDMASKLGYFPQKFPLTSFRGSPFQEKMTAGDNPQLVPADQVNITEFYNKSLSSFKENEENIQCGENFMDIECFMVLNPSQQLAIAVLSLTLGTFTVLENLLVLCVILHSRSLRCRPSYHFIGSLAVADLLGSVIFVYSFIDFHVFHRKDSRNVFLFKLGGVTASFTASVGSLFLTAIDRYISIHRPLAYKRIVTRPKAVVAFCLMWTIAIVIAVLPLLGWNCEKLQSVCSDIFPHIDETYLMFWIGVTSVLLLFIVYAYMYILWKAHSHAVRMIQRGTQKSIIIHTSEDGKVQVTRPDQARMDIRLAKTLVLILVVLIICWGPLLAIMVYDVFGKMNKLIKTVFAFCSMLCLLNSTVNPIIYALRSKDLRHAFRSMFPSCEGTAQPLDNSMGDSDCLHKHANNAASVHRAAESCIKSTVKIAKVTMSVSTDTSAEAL
# run description: Antagonist activity at human CB1 receptor transfected in CHO-K1 cells co-expressing Galphaq16 assessed as intracellular calcium mobilization using Calcein-4 AM by fluorescence assay
# Format: functional, cell-based
All answers are understood in nM, so give the number only.

chemical smiles: CCCCNC(=O)N1CCC(Nc2ncnc3c2nc(-c2ccccc2Cl)n3-c2ccc(Cl)cc2)CC1
Ke / nM: 71

// Ke value for "O=C(NC1CCN(c2ncnc3c2nc(-c2ccccc2Cl)n3-c2ccc(Cl)cc2)CC1)c1ccccc1" : 0.7

// Ke value for "CC(=O)N1CCC[C@@H](Nc2ncnc3c2nc(-c2ccccc2Cl)n3-c2ccc(Cl)cc2)C1" : 920

// Ke value for "CCNC(=O)N1CCC[C@@H](Nc2ncnc3c2nc(-c2ccccc2Cl)n3-c2ccc(Cl)cc2)C1" : 1500

// Ke value for "CC(C)(C)OC(=O)N1CCC(Nc2ncnc3c2nc(-c2ccccc2Cl)n3-c2ccc(Cl)cc2)CC1" : 92

// Ke value for "NC(=O)C1(c2ccccc2)CCN(c2ncnc3c2nc(-c2ccccc2Cl)n3-c2ccc(Cl)cc2)CC1" : 9

// Ke value for "CCCNC(=O)NC1(c2ccccc2)CCN(c2ncnc3c2nc(-c2ccccc2Cl)n3-c2ccc(Cl)cc2)CC1" : 99
